Data provenance: paper PMC3499988

Target System: HIV-1 YU-2 gp120 (HIV-1 (YU-2), UniProt P35961)
Test Name: SPR
Result Type: IC50

Fab m18 I100A (HCDR3) (Fab, V domains shown) VH: VQLLESGPGVVKPSETLSLTCTVSGASVNNYYWTWVRQPPGKGLEWIGNVYDSGDTNYNPSLSSRLSLSMDTSKNQFSLRLSSVTAADTATYYCARYHRHFARGPLSFDYWGRGTLVTVSS VL: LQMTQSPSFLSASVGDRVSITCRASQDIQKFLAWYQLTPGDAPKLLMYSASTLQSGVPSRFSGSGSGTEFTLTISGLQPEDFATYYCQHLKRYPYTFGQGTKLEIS : > 500 nM
Fab m18 Y33F (HCDR1) (Fab, V domains shown) VH: VQLLESGPGVVKPSETLSLTCTVSGASVNNYFWTWVRQPPGKGLEWIGNVYDSGDTNYNPSLSSRLSLSMDTSKNQFSLRLSSVTAADTATYYCARYHRHFIRGPLSFDYWGRGTLVTVSS VL: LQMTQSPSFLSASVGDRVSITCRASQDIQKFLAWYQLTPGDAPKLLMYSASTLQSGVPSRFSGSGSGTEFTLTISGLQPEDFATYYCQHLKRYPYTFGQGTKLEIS : > 1000 nM
Fab m18 S52A (LCDR2) (Fab, V domains shown) VH: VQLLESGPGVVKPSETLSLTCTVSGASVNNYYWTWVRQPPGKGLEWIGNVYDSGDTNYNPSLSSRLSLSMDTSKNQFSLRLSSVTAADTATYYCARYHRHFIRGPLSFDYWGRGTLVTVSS VL: LQMTQSPSFLSASVGDRVSITCRASQDIQKFLAWYQLTPGDAPKLLMYSAATLQSGVPSRFSGSGSGTEFTLTISGLQPEDFATYYCQHLKRYPYTFGQGTKLEIS : > 500 nM

Problem: // returns reported IC50 for input Fab m18 P95A (LCDR3) (Fab, V domains shown) VH: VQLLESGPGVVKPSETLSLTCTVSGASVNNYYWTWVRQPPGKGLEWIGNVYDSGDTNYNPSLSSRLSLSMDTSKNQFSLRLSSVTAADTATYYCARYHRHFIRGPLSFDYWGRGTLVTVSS VL: LQMTQSPSFLSASVGDRVSITCRASQDIQKFLAWYQLTPGDAPKLLMYSASTLQSGVPSRFSGSGSGTEFTLTISGLQPEDFATYYCQHLKRYAYTFGQGTKLEIS
Result: > 1000 nM
